Assay: Cytotoxicity against human C8166 cells after 72 hrs by MTT method
Format: cell-based
Reported CC50 at 72 h values follow for various compounds
Expressed in µM, but write only the number.

Here are 2 compounds together with their reported answers.
compound	CC50 at 72 h / µM
COc1cc2c(cc1OC)C(c1ccccn1)NCC2 (configuration not stated)	444
COc1cc2c(cc1OC)C(c1ccccc1F)NCC2 (configuration not stated)	175

Give the reported value of CC50 at 72 h for this record: COc1cc2c(cc1OC)C(c1ccc(C(F)(F)F)cc1)NCC2 (configuration not stated)
30.9

Complete the entry with CC50 at 72 h for COc1cc2c(cc1OC)C(c1ccccc1OC)NCC2 (configuration not stated)
555
